# Test system: CCRF-CEM leukemia
# MEASUREMENT PROTOCOL: NCI-60 one-dose screen, 48 h (100 = growth as untreated, 0 = no growth, -100 = all killed)
# MEASUREMENT PARAMETERS: 10 µM unless noted
About 83,000 compounds went through this panel and 20% of them were active in at least one assay; those are over-represented in the sample as a whole.
Give growth for every item shown.
Answers are plain numbers, in %.

These recorded examples may help you get a feel for the data.
>  <MOLECULE>
C[C@@H](Nc1c(C#N)cnc2ccc(-c3cnc(N)nc3)cc12)c1ccccc1

>  <MEASUREMENT TARGET>
CCRF-CEM leukemia

>  <UNITS SYMBOL>
%

>  <growth>
14

$$$$
>  <MOLECULE>
[Cl][Ru].c1ccc(-c2cccc(-c3ccccn3)n2)nc1.c1ccc(-c2ccnc3c2ccc2c(-c4ccccc4)ccnc23)cc1

>  <MEASUREMENT TARGET>
CCRF-CEM leukemia

>  <UNITS SYMBOL>
%

>  <growth>
38

$$$$
>  <MOLECULE>
N#Cc1ccc(C(=O)CSc2nc(Nc3ccc(S(N)(=O)=O)cc3)c3ccccc3n2)cc1

>  <MEASUREMENT TARGET>
CCRF-CEM leukemia

>  <UNITS SYMBOL>
%

>  <growth>
94.7

$$$$
>  <MOLECULE>
Clc1ccc2c(NCCCn3ccnc3)c3oc4ccccc4c3nc2c1

>  <MEASUREMENT TARGET>
CCRF-CEM leukemia

>  <UNITS SYMBOL>
%

>  <growth>
37.4

$$$$
>  <MOLECULE>
Cc1ccc(CNS(=O)(=O)/N=C2\NC(=O)NC2=C(Cl)Cl)cc1

>  <MEASUREMENT TARGET>
CCRF-CEM leukemia

>  <UNITS SYMBOL>
%

>  <growth>
16.1

$$$$
>  <MOLECULE>
Clc1ccc(Cc2nnc3sc(-c4cccnc4)nn23)cc1

>  <MEASUREMENT TARGET>
CCRF-CEM leukemia

>  <UNITS SYMBOL>
%

>  <growth>
98.9

$$$$
>  <MOLECULE>
CCOC(=O)c1sc(N)c(C(=O)OCC)c1C

>  <MEASUREMENT TARGET>
CCRF-CEM leukemia

>  <UNITS SYMBOL>
%

>  <growth>
42

$$$$
>  <MOLECULE>
N#Cc1c(-c2ccc(Cl)cc2)nc2c(-c3ccccc3)c(Nc3ccccc3)nn2c1N

>  <MEASUREMENT TARGET>
CCRF-CEM leukemia

>  <UNITS SYMBOL>
%

>  <growth>
67.9

$$$$
>  <MOLECULE>
OC1CCN(CCCOc2c3ccccc3nc3c2oc2ccccc23)CC1

>  <MEASUREMENT TARGET>
CCRF-CEM leukemia

>  <UNITS SYMBOL>
%

>  <growth>
6.02

$$$$
>  <MOLECULE>
CN1CCN(Cc2ccc(NC(=O)c3cncc(C#Cc4cnc5ccc(N6CCSCC6)nn45)c3)cc2C(F)(F)F)CC1

>  <MEASUREMENT TARGET>
CCRF-CEM leukemia

>  <UNITS SYMBOL>
%

>  <growth>
3.28

$$$$

Field: growth. Fill in for each record below.
1. Cc1ccc(/C=C/c2nn3c(-c4ccco4)nnc3s2)cc1C
2. COc1cccc(NC2=CC(=O)C(C)=C(C)C2=O)c1
3. COc1cc(-c2nc3ccc(-c4nnc(SCC(=O)Nc5ccc(C(C)=O)cc5)o4)cc3[nH]2)cc(OC)c1OC
4. COc1ccc(-c2nn3c(-c4ccccc4F)nnc3s2)cc1

Result:
104
15.8
104
58.5

Field: growth. Fill in for each record below.
1. O=C(CSc1nc2sc3c(c2c(=O)n1-c1ccc(Cl)cc1)CCCC3)NNC(=O)Nc1ccc(Cl)c(C(F)(F)F)c1
2. NS(=O)(=O)c1cccc(Nc2nc(SCC(=O)c3ccc([N+](=O)[O-])cc3)nc3ccccc23)c1
3. CN(C)CCCOc1c2ccc(Cl)cc2nc2c1oc1ccccc12

Result:
1. 13.5
2. 12
3. 0.191

Field: growth. Fill in for each record below.
1. O=C(N/N=C/c1cccs1)c1[nH]c2ccc(Br)cc2c1-c1ccccc1
2. NS(=O)(=O)c1ccc(Nc2nc(Nc3ccccc3)nc(-n3nc(-c4ccccc4)cc3-c3ccccc3)n2)cc1
3. N/C(=N\c1nc2c(Br)cccc2s1)C(Br)Br
4. Cn1ccnc1C(=O)/C=C/c1ccc(NC(=O)Nc2ccc(F)cc2)cc1

Result:
1. 8.56
2. 10.7
3. -1.73
4. 12.6

Field: growth. Fill in for each record below.
1. N#Cc1nc(-c2ccccc2)oc1S(=O)(=O)N1CCN(CCc2ccccn2)CC1
2. O=C1Nc2cc(Cl)ccc2/C1=C\c1ccc(OCc2ccc(Br)cc2F)cc1
3. CCCC(=O)NC(c1ccc2c(c1)OC(F)(F)O2)c1cc(C)c2cccnc2c1O (centres undefined)

Result:
[1.54, 12.9, 9.16]

* * *

# Tested on: U251 CNS
# MEASUREMENT PROTOCOL: NCI-60 one-dose screen, 48 h
# MEASUREMENT PARAMETERS: 10 µM unless noted
# Description: Growth inhibition of the U251 human tumor cell line is measured as a screen for anti-cancer activity. Cells are grown in 96 well plates and exposed to the test compound for 48 hours. Compounds are tested at a single concentration, which is 10^-5 M for most compounds. The reported endpoint is percent growth (GI% or GIPRCNT), where numbers from 0 - 100% represent growth inhibition, and numbers from -100% - 0 represent cell death. For example, a value of 40 represents 60% growth inhibition. […]
This is part of a sample that, as a whole, favours compounds with a hit. Of some 83,000 tested, about 20% had one in any assay. Calls of active or inactive are those of the source. The calls were made as follows: active = growth percent below 10; inactive = the rest.
Give your call using only these classes: active, inactive

Solved cases (5 shown):
>  <COMPOUND>
CC(C)(C)Nc1nc2c(OCCc3ccccc3)cccn2c1-c1ccc(O)cc1

>  <LABEL>
inactive

$$$$
>  <COMPOUND>
COc1cc2nc(-c3ccc(C(F)(F)F)cc3)cc(OCCCNCC3CCCO3)c2cc1OC (centres undefined)

>  <LABEL>
inactive

$$$$
>  <COMPOUND>
CCN1C(=S)N(CC)C2C1N=C(SC)N2/N=C/C=C/c1ccccc1[N+](=O)[O-] (centres undefined)

>  <LABEL>
inactive

$$$$
>  <COMPOUND>
O=C1Nc2ccccc2Oc2ccc(S(=O)(=O)CC3CO3)cc21 (centres undefined)

>  <LABEL>
inactive

$$$$
>  <COMPOUND>
Nc1cc(-c2c[nH]c3ccc(Cl)cc23)nc2cc(-c3c[nH]c4ccc(Cl)cc34)nn12

>  <LABEL>
active

$$$$

Ask: Could you please tell me the result logged for C=C1CC[C@H]2[C@@](C)(CCC3OC(c4ccc(OCc5cn(C6CC(OC(C)=O)C(OC(C)=O)C(COC(C)=O)O6)nn5)cc4)OC[C@]32C)[C@@H]1/C=C/C1=CCOC1=O (some centres undefined) in this assay?
Result: inactive

Ask: Could you please tell me the result logged for COc1cc(N=Cc2sc(Nc3nccs3)nc2O)cc(OC)c1OC in this assay?
Result: inactive

Ask: Could you please tell me the result logged for O=C1c2c(c3c4cccnc4[nH]c3c3ccc4ccccc4c23)C(=O)N1CCO in this assay?
Result: inactive

Ask: Could you please tell me the result logged for Cc1c(Nc2nnc(SCC(=O)Nc3sc4c(c3C#N)CCCC4)s2)c(=O)n(-c2ccccc2)n1C in this assay?
Result: inactive

Ask: Could you please tell me the result logged for N#Cc1nc(-c2ccccc2)oc1N1CCC(CO)C1 (centres undefined) in this assay?
Result: inactive

Ask: Could you please tell me the result logged for COc1ccccc1/C=C/C=N/NC1=NC2C(S1)N(C)C(=O)N2C (centres undefined) in this assay?
Result: inactive

Ask: Could you please tell me the result logged for O=C(CCCN1C(=O)/C(=C/c2ccccc2F)SC1=S)N1CCOCC1 in this assay?
Result: inactive

Ask: Could you please tell me the result logged for Cc1c(NC(=O)CSc2nc3sc4c(c3c(=O)n2-c2ccc(Cl)cc2)CCCC4)c(=O)n(-c2ccccc2)n1C in this assay?
Result: inactive

* * *

# System: KM12 colon
# MEASUREMENT PROTOCOL: NCI-60 one-dose screen, 48 h (100 = growth as untreated, 0 = no growth, -100 = all killed)
# MEASUREMENT PARAMETERS: 10 µM unless noted
Compounds without any hit were thinned out: in the full panel of roughly 83,000, 20% have a hit.
Label -1 if growth falls below 60%; label 1 in every other case.

Solved cases (3 shown):
>  <COMPOUND>
Clc1ccc2c(NCCCn3ccnc3)c3oc4ccc(Cl)cc4c3nc2c1

>  <LABEL>
1

$$$$
>  <COMPOUND>
CC(=O)Nc1cc(F)cc(-c2ccc3[nH]cc(-c4ccccc4)c3n2)c1

>  <LABEL>
-1

$$$$
>  <COMPOUND>
CCC/C=C/C=C/C(=O)N[C@@H](Cc1cc(F)cc(F)c1)C(=O)N[C@@H]1C(=O)N2CCC[C@H]2C(=O)N2CCCC[C@H]2C(=O)N[C@@H](C)C(=O)N2C[C@H](C)C[C@H]2C(=O)O[C@H]1C

>  <LABEL>
-1

$$$$

Ask: Record C#Cc1nc(C2=C(C)/C(=N/OCc3ccccc3)CC2)cs1 ; criterion: growth no lower than 60%. Met?
Result: -1

Ask: Record COc1cc(/C=C/C(=O)c2ccc(C(F)(F)F)cc2)ccc1Oc1nc(NCCO)nc(N2CCOCC2)n1 ; criterion: growth no lower than 60%. Met?
Result: 1

Ask: Record Cn1cc(-c2cc(N)n3nc(-c4cn(C)c5ccc(F)cc45)cc3n2)c2cc(F)ccc21 ; criterion: growth no lower than 60%. Met?
Result: -1

Ask: Record OC1CCc2c(-c3ccc4ncnc(N5CCc6cc(F)c(Cl)cc65)c4c3)cncc21 (stereo not drawn) ; criterion: growth no lower than 60%. Met?
Result: 1

Ask: Record CCCCCCNC(=O)Oc1ccc(/C(=C(/C)c2ccccc2)c2ccc(OCCN3CCCCCC3)cc2)cc1 ; criterion: growth no lower than 60%. Met?
Result: -1
